Test system: HT29 colon
experimentalProtocol: NCI-60 one-dose screen, 48 h (100 = growth as untreated, 0 = no growth, -100 = all killed)
measurementConditions: 10 µM unless noted
Protocol: Growth inhibition of the HT29 human tumor cell line is measured as a screen for anti-cancer activity. Cells are grown in 96 well plates and exposed to the test compound for 48 hours. Compounds are tested at a single concentration, which is 10^-5 M for most compounds. The reported endpoint is percent growth (GI% or GIPRCNT), where numbers from 0 - 100% represent growth inhibition, and numbers from -100% - 0 represent cell death. For example, a value of 40 represents 60% growth inhibition. […]
Compounds without any hit were thinned out: in the full panel of roughly 83,000, 20% have a hit.
Record MET whenever growth is at 70% or higher; record NOT MET when lower.

CCOC(=O)c1c(C)nc2c(c1N)C(=O)C(=O)N2Cc1ccc(OC)cc1 | NOT MET
CCOC(=O)CNC1=C(Cl)C(=O)N(Cc2ccc(Cl)cc2)C1=O | MET
O=S(=O)(Nc1ccc2ccccc2c1)c1ccc(-c2cnc(C3CC3)o2)cc1 | NOT MET
c1ccc(-c2c(-c3ccccc3)[n+](Cc3ccc4ccccc4c3)cn2Cc2ccc3ccccc3c2)cc1 | NOT MET
COc1ccc(-c2cn(Cc3cc4ccccc4s3)nn2)cc1OCCN1CCCCC1 | NOT MET
COc1ccc(C2CC(c3ccccc3)=NN2C(=O)c2cc(OC)c(OC)c(OC)c2)cc1O (configuration not stated) | NOT MET
CCCCCc1ccc(S(=O)(=O)Nc2ccc3nc(N)oc3c2)cc1 | MET
O=C1C=C(SCCO)C(=O)c2ccccc21 | MET
COC(=O)c1c2c(c[n+]([O-])c1C)C(=O)C=C(NCc1ccccc1)C2=O | NOT MET
O=CN1N=C(c2cccc(Nc3ccnc4cc(Cl)ccc34)c2)CC1c1ccc(Cl)cc1 (configuration not stated) | NOT MET
Cc1c(C(C)(C)O)cn2ncnc(Oc3ccc(NC(=O)Nc4ccc(Cl)c(C(F)(F)F)c4)c(F)c3)c12 | NOT MET
COc1cc([C@@H](CCO)C[C@H](C)c2ccc3ccccc3c2)cc(OC)c1OC | NOT MET
CC1=Nc2cnc(Nc3ccc(N4CCCCC4)cc3)nc2Nc2ccccc21 | NOT MET
COc1cc(/C=C/c2cc(/C=C/c3ccc(O)c(OC)c3)n(C(=O)Nc3ccc(Cl)cc3)n2)ccc1O | NOT MET
C=C(C)[C@@H]1CC[C@]2(CO)CC[C@]3(C)[C@H](CC[C@@H]4[C@@](C)(CCCN)[C@H](C(=C)C)CC[C@]43C)[C@@H]12 | NOT MET
CC(C)(C)c1ccc(S(=O)(=O)Oc2ccc(-c3sc4cc(OS(=O)(=O)c5ccc(C(C)(C)C)cc5)ccc4c3C(=O)c3ccc(OCCN4CCCCC4)cc3)cc2)cc1 | MET
N#CSc1c[nH]c2ccc(/C=C/C(=O)/C=C(O)/C=C/c3ccc4[nH]cc(SC#N)c4c3)cc12 | NOT MET
CCOC(=O)c1cnn(CC(C)O)c1NC(=O)NCc1ccccc1C(F)(F)F (configuration not stated) | MET
CN(C)c1ccc(/C=C2\C=C(c3nc4ccccc4s3)OC2=O)cc1 | MET
CCOC(=O)/C=C1\S/C(=N\Nc2cc(=O)[nH]c3ccc(Br)cc23)N(c2ccccc2)C1=O | MET
C=C1C(=O)O[C@H]2[C@H]1CC/C(COC(=O)/C=C\C(=O)NCc1ccc(Cn3c(=O)sn(CCCCl)c3=O)cc1)=C\CC[C@@]1(C)O[C@@H]21 | NOT MET
COc1ccc(/C=N/Nc2c3ccccc3nc3ccccc23)cc1 | MET
O=S(=O)(Nc1cc(F)cc(F)c1)c1ccc(-c2cnc(C3CC3)o2)cc1 | NOT MET
COc1ccc(-c2cc(-c3cn(-c4cccc(Cl)c4)nc3-c3ccc(OC)cc3)on2)cc1 | MET
COCCOC(C)C(/C=N/NC(N)=S)=N/NC(N)=S (configuration not stated) | NOT MET
Cc1ccc2c(c1)=C/C(=C\c1cc(-c3ccccc3)[nH]c1O)C(=O)N=2 | NOT MET
